assay: recombinant barcode read abundance after kanamycin selection (control-corrected) (log10(CPM+1)); higher = more efficient recombination; sequences stand for … in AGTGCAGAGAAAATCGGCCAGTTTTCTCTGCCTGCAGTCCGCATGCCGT…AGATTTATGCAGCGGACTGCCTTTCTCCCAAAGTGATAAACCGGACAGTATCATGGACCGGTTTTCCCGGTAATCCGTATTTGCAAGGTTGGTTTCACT; site = the 11-nt target;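 also: IS621 recombinase and bridge RNA in Escherichia coli cells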
What recombinant barcode read abundance (log10) was measured for each of the following?
Number only, no unit.

Req: Would you mind telling me what recombinant barcode read abundance (log10) value was observed for GCTTTACCTTGGGTTCTAACCTGTTGCCT (site GCTTTACCTAG) ?
Resp: 0.456

Req: Would you mind telling me what recombinant barcode read abundance (log10) value was observed for CTCGTGTCTTGGGTTCTAACCTGTTGCAT (site CTCGTGTCTAT) ?
Resp: 2.88

Req: Would you mind telling me what recombinant barcode read abundance (log10) value was observed for ATCGCTTCTTGGGTTCTAACCTGTTGCCT (site ATCGCTTCTAG) ?
Resp: 0.0338

Req: Would you mind telling me what recombinant barcode read abundance (log10) value was observed for GGGCTTACTTGGGTTCTAACCTGTTGCCT (site GGGCTTACTAG) ?
Resp: 0.178

These measurements were taken from the supplement of paper PMC11208160.
